For each of the compounds below, state its pIC50.
Test system: VCaP cells
assay notes: VCaP growth inhibition assay
Format: cell-based
study conditions: 30 pM R1881, 9 days, CTG
pIC50: −log10 of the molar value.

The reported pIC50 of the compound COc1cc(OC2C(C)(C)C(NC(=O)c3ccc(N4CCC(CN5CCC(n6nc(N7CCCc8cc(-c9cnn(C)c9)c(C(F)F)cc87)c7c6CCN(C(C)=O)C7)CC5)C(C)C4)cc3)C2(C)C)ccc1C#N (stereo not drawn) was ≥ 10.00

The reported pIC50 of the compound CC(=O)N1CCc2c(c(N3CCCc4cc(-c5cnn(C)c5)c(C(F)F)cc43)nn2C2CCC3(CC2)CCN(CC2CN(c4ccc(C(=O)NC5C(C)(C)C(Oc6ccc(C#N)c(Cl)c6)C5(C)C)nn4)C2)CC3)C1 (stereo not drawn) was ≥ 10.00

The reported pIC50 of the compound CC(=O)N1CCc2c(c(-c3cccc4cc(-c5ccc(C(=O)NCCc6ncc(C(=O)NC7C(C)(C)C(Oc8ccc(C#N)c(Cl)c8)C7(C)C)cn6)nc5)ncc34)nn2C2CCOCC2)C1 (stereo not drawn) was 7.00 to 9.00

The reported pIC50 of the compound CC(=O)N1CCc2c(c(N3CCCc4cc(-c5cnn(C)c5)c(C(F)F)cc43)nn2C2CCC(OC3CN(c4ncc(C(=O)NC5C(C)(C)C(Oc6ccc(C#N)c(Cl)c6)C5(C)C)cn4)C3)CC2)C1 (stereo not drawn) was 9.00 to 10.00

The reported pIC50 of the compound COc1cc(OC2C(C)(C)C(NC(=O)c3ccc(N4CCC(C5CCC(n6cc(-c7cc8cccc(-c9nn(C%10CCOCC%10)c%10c9CN(C(C)=O)CC%10)c8cn7)cn6)CC5)CC4)cc3)C2(C)C)ccc1C#N (stereo not drawn) was 9.00 to 10.00

The reported pIC50 of the compound COc1cc(OC2C(C)(C)C(NC(=O)c3ccc(N4CC5(CCC(N6CCC(n7nc(-c8cccc9cc(-c%10cnn(C)c%10)ncc89)c8c7CCN(C(C)=O)C8)CC6)CC5)C4)cc3)C2(C)C)ccc1C#N (stereo not drawn) was 9.00 to 10.00

The reported pIC50 of the compound CC(=O)N1CCc2c(c(N3CCCc4cc(-c5cnn(C)c5)c(C)cc43)nn2C2CCN(C3CCC4(CC3)CN(c3ncc(C(=O)NC5C(C)(C)C(Oc6ccc(C#N)c(C)c6)C5(C)C)cn3)C4)CC2)C1 (stereo not drawn) was 9.00 to 10.00

The reported pIC50 of the compound C[C@@H]1CC(=O)Nc2cccc(-c3ccc4c(c3)c(-c3cnn(C)c3)nn4CCN3CCN(c4ncc(C(=O)NC5C(C)(C)C(Oc6ccc(C#N)c(Cl)c6)C5(C)C)cn4)CC3)c2N1 (stereo partly drawn) was 9.00 to 10.00

The reported pIC50 of the compound CC(=O)N1CCc2c(c(N3CCCc4cc(-c5cnn(C)c5)c(C(F)F)cc43)nn2C2CCN(C3CC4(CC(Oc5ncc(C(=O)NC6C(C)(C)C(Oc7ccc(C#N)c(Cl)c7)C6(C)C)cn5)C4)C3)CC2)C1 (stereo not drawn) was 9.00 to 10.00
